Molecular target: human CD33 T239A (human, UniProt P20138 18-364)
Sequence (P20138 18-364 T239A limits assumed): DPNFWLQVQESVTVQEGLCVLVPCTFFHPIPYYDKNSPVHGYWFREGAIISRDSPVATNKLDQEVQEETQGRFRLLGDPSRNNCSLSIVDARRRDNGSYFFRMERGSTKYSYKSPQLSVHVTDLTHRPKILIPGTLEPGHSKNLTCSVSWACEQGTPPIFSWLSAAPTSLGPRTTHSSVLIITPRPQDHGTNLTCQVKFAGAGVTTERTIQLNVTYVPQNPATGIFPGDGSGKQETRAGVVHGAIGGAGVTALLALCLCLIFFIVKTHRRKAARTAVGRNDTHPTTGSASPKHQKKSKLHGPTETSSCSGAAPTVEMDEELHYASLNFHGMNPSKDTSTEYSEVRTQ
Assay: alanine scan, flow cytometry, HEK293-T;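 further: antibody binding to each alanine-substituted CD33 mutant expressed transiently in HEK293-T, read as fluorescence minus background, mean of duplicates, relative to wild-type CD33 set as 100%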
observed-property: Mean % WT Binding (%)
Give bare numbers, in %.

Use the examples below as a reference point.
# binder, u, Mean % WT Binding
measured = [
    ("Refmab #2 (antibody, V domains shown, In the alanine scan antibodies were used as IgG or Fab) VH: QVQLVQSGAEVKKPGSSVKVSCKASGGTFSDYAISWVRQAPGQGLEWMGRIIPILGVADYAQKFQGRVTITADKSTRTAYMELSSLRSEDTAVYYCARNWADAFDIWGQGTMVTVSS VL: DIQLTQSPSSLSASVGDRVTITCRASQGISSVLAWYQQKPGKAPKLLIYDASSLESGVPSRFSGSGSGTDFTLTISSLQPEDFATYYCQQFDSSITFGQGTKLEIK", "%", 111),
    ("Refmab #4 (antibody, V domains shown, In the alanine scan antibodies were used as IgG or Fab) VH: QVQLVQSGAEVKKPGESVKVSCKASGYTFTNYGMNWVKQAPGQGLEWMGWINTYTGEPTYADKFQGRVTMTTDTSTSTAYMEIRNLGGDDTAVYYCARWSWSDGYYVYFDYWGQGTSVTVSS VL: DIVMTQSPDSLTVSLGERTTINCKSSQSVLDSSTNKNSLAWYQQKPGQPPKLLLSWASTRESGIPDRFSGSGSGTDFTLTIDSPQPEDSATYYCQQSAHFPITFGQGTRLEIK", "%", 102),
    ("Refmab #1 (antibody, V domains shown, In the alanine scan antibodies were used as IgG or Fab; also called hP67.6) VH: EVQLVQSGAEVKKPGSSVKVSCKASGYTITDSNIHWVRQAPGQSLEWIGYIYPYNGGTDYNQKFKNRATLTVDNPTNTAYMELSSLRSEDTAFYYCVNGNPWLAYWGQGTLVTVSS VL: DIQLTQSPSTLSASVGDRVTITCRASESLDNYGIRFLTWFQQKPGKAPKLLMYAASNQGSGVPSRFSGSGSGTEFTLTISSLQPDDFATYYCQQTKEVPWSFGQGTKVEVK", "%", 79.7),
]

Next item in the queue.
Consider the binder shown here: Refmab #3 (antibody, V domains shown, In the alanine scan antibodies were used as IgG or Fab) VH: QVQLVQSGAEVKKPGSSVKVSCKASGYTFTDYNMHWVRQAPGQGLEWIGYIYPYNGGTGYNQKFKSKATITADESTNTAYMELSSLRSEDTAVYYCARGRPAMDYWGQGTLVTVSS VL: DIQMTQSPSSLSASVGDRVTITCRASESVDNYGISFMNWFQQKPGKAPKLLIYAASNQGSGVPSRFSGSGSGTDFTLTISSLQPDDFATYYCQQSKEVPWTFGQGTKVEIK What is its recorded Mean % WT Binding?
105
